The origin of these recorded values is a melting point compilation (Tetko et al.; mined from patent text by program, amines drawn as free bases though some values may be those of a salt).

Listing of recorded melting point by entry.
assay_endpoint: melting point

# compound, measured_result
measured = [
    ("Clc1ccc(CN2CCCCC2)cn1", "48 °C"),
    ("CN1CCC(N=[N+]=[N-])(c2ccccc2)C(O)C1 (configuration not stated)", "170 to 171 °C"),
    ("CC(C)(C)OC(=O)N1CCC[C@H](COc2ccccc2O)C1", "98 to 101 °C"),
    ("CCCSc1ncc(CC(C(=O)O)C(=O)OCC)n1Cc1ccccc1Cl (configuration not stated)", "118 to 120 °C"),
    ("CCCCCCS(=O)(=O)NC(=O)CCc1cc(OC(C)C)nn1Cc1ccc(Cl)cc1Cl", "103 to 106 °C"),
    ("CCOC(=O)c1nn(-c2ccc(Cl)cc2)c(=O)c(C#N)c1C", "160 to 161 °C"),
    ("O=C(Nc1ccc2cc(CN3CCCC3)cnc2c1F)c1ccc(-c2ccccc2)cc1F", "136 to 137 °C"),
]
